# System: Rattus norvegicus
# assay-name: Antiinflammatory activity in Wister albino rat assessed as inhibition of carrageenan-induced paw edema at 50 mg/kg, ip administered 1 hr before carrageenan challenge measured after 4 hrs by plethysmometer relative to indomethacin
# Format: functional
# conditions: route intraperitoneal
measurement-type: inhibition in vivo at 50 mg/kg (%)
Kindly provide the numeric value in % only, without the unit symbol.

Worked set:
compound	tgt	inhibition in vivo at 50 mg/kg (%)
COc1ccc2c(c1)c(CC(=O)O)c(C)n2C(=O)c1ccc(Cl)cc1 [INDOMETHACIN]	Rattus norvegicus	100
CCOC(=O)c1c(-c2ccc(Cl)c(Cl)c2)cc(-c2ccccc2)nc1N1CCCCC1	Rattus norvegicus	95.1
CCOC(=O)c1c(-c2ccc(Cl)cc2)cc(-c2ccccc2)nc1N1CCN(C)CC1	Rattus norvegicus	55.6
CCOC(=O)c1c(-c2ccc(Cl)c(Cl)c2)cc(-c2ccccc2)nc1N1CCOCC1	Rattus norvegicus	96.6

Form field inhibition in vivo at 50 mg/kg, entry CCOC(=O)c1c(-c2ccc(Cl)cc2)cc(-c2ccccc2)nc1Nc1ccc(Cl)cc1 : 95.9

Value of inhibition in vivo at 50 mg/kg reported for the compound CCOC(=O)c1c(-c2ccc(Cl)cc2)cc(-c2ccccc2)nc1Nc1ccc(OC)cc1 is 57.2

So for CCOC(=O)c1c(-c2ccc(Cl)cc2)cc(-c2ccccc2)nc1Nc1ccc(C)cc1 , the logged inhibition in vivo at 50 mg/kg turned out to be 90.9

----------
# System: Rattus norvegicus
# assay-name: Antiinflammatory activity in Wister albino rat assessed as inhibition of carrageenan-induced paw edema at 50 mg/kg, ip administered 1 hr before carrageenan challenge measured after 24 hrs by plethysmometer relative to control
# Format: functional
# conditions: route intraperitoneal
measurement-type: inhibition in vivo at 50 mg/kg (%)
Write down the numeric answer in % and omit the unit.

mol-smiles	measurement-type	unit-text	quantitative-readout
CCOC(=O)c1c(-c2ccc(Cl)cc2)cc(-c2ccccc2)nc1N1CCOCC1	inhibition in vivo at 50 mg/kg	%	61.7

Recorded inhibition in vivo at 50 mg/kg (compound CCOC(=O)c1c(-c2ccc(Cl)cc2)cc(-c2ccccc2)nc1Nc1ccccc1 ): 46.5

Memo: CCOC(=O)c1c(-c2ccc(Cl)cc2)cc(-c2ccccc2)nc1N1CCN(C)CC1 , reported inhibition in vivo at 50 mg/kg: 53.2

CCOC(=O)c1c(-c2ccc(Cl)cc2)cc(-c2ccccc2)nc1Nc1ccc(C)cc1 yielded inhibition in vivo at 50 mg/kg of 62.7

----------
# System: Rattus norvegicus
# assay-name: Antiinflammatory activity in Wister albino rat assessed as inhibition of carrageenan-induced paw edema at 50 mg/kg, ip administered 1 hr before carrageenan challenge measured after 4 hrs by plethysmometer relative to control
# Assay type: functional
# conditions: route intraperitoneal
Recorded measurements of inhibition in vivo at 50 mg/kg, one per entry
Provide the reading as a plain figure in %.

Here's what some known entries look like.
mol-smiles	unit-text	inhibition in vivo at 50 mg/kg
CCOC(=O)c1c(-c2ccc(C)cc2)cc(-c2ccccc2)nc1Nc1ccc(Cl)cc1	%	79.4
C=CCn1c([S-])n[n+]2c(N)c(C#N)c(-c3ccc(N4CCCCC4)cc3)c(C#N)c12	%	68.5
Cn1c([S-])n[n+]2c(N)c(C#N)c(-c3ccc(N4CCCCC4)cc3)c(C#N)c12	%	51.1

Data point: CCOC(=O)c1c(-c2ccc(F)cc2)cc(-c2ccccc2)nc1N1CCCCC1 ; inhibition in vivo at 50 mg/kg = 76

Entry CCOC(=O)c1c(-c2ccc(C)cc2)cc(-c2ccccc2)nc1N1CCOCC1 — recorded inhibition in vivo at 50 mg/kg = 73

For reference, reported inhibition in vivo at 50 mg/kg for CCOC(=O)c1c(-c2ccc(F)cc2)cc(-c2ccccc2)nc1N1CCOCC1 stands at 72.7

For reference, reported inhibition in vivo at 50 mg/kg for CCOC(=O)c1c(-c2ccc(Cl)cc2)cc(-c2ccccc2)nc1Nc1ccc(C)cc1 stands at 61.8

inhibition in vivo at 50 mg/kg reported for this compound Cn1c([S-])n[n+]2c(N)c(C#N)c(-c3ccc(N4CCOCC4)cc3)c(C#N)c12 : 45.4

Lab note: measured inhibition in vivo at 50 mg/kg of CCOC(=O)c1c(-c2ccc(Cl)c(Cl)c2)cc(-c2ccccc2)nc1N1CCOCC1 was 65.7

Noted for CCOC(=O)c1c(-c2ccc(Cl)c(Cl)c2)cc(-c2ccccc2)nc1N1CCCCC1 : its inhibition in vivo at 50 mg/kg reads 64.7

Noted for C=CCn1c([S-])n[n+]2c(N)c(C#N)c(-c3ccc(N4CCOCC4)cc3)c(C#N)c12 : its inhibition in vivo at 50 mg/kg reads 60.6

# inhibition in vivo at 50 mg/kg of CCOC(=O)c1c(-c2ccc(Cl)c(Cl)c2)cc(-c2ccccc2)nc1Nc1ccc(C)cc1 = 59.8

Briefly, inhibition in vivo at 50 mg/kg measured for CCOC(=O)c1c(-c2ccc(Cl)cc2)cc(-c2ccccc2)nc1N1CCN(C)CC1 : 37.8

----------
# System: Rattus norvegicus
# assay-name: Antiinflammatory activity in Wister albino rat assessed as inhibition of carrageenan-induced paw edema at 50 mg/kg, ip administered 1 hr before carrageenan challenge measured after 24 hrs by plethysmometer relative to control
# Assay type: functional
# conditions: route intraperitoneal
Cut-off 40% on inhibition in vivo at 50 mg/kg, inclusive. At or above means y; below means n.

These solved cases illustrate the format of a correct answer.
mol-smiles	group
CCOC(=O)c1c(-c2ccc(Cl)c(Cl)c2)cc(-c2ccccc2)nc1Nc1ccc(Cl)cc1	y
CCOC(=O)c1c(-c2ccc(Cl)cc2)cc(-c2ccccc2)nc1Nc1ccc(Cl)cc1	n
CCOC(=O)c1c(-c2ccc(Cl)c(Cl)c2)cc(-c2ccccc2)nc1N1CCCCC1	y

Confirm if inhibition in vivo at 50 mg/kg reported for the compound CCOC(=O)c1c(-c2ccc(Cl)cc2)cc(-c2ccccc2)nc1N1CCCCC1 is 40% or above.
n

# bool: inhibition in vivo at 50 mg/kg of CCOC(=O)c1c(-c2ccc(Cl)c(Cl)c2)cc(-c2ccccc2)nc1N1CCOCC1 >= 40%
y

----------
# inhibition in vivo at 50 mg/kg per record follows
# Test system: Rattus norvegicus
# assay-name: Antiinflammatory activity in Wister albino rat assessed as inhibition of carrageenan-induced paw edema at 50 mg/kg, ip administered 1 hr before carrageenan challenge measured after 4 hrs by plethysmometer relative to control
# Assay type: functional
# conditions: route intraperitoneal
// note: answer is a bare numeric in %

According to the records, this molecule CN1CCN(c2ccc(-c3c(C#N)c(N)[n+]4nc([S-])n(C)c4c3C#N)cc2)CC1 displays inhibition in vivo at 50 mg/kg of 36.6

----------
# Tested on: Rattus norvegicus
# assay-name: Antiinflammatory activity in Wister albino rat assessed as inhibition of carrageenan-induced paw edema at 50 mg/kg, ip administered 1 hr before carrageenan challenge measured after 4 hrs by plethysmometer relative to control
# Format: functional
# conditions: route intraperitoneal
measurement-type: inhibition in vivo at 50 mg/kg (%)
All answers are understood in %, so give the number only.

Some compounds with known inhibition in vivo at 50 mg/kg results, for comparison:
mol-smiles	quantitative-readout
CCOC(=O)c1c(-c2ccc(Cl)c(Cl)c2)cc(-c2ccccc2)nc1Nc1ccc(Cl)cc1	62.4
CCOC(=O)c1c(-c2ccc(C)cc2)cc(-c2ccccc2)nc1Nc1ccc(OC)cc1	89.4
CCOC(=O)c1c(-c2ccc(Cl)cc2)cc(-c2ccccc2)nc1N1CCOCC1	81.3
CCOC(=O)c1c(-c2ccc(F)cc2)cc(-c2ccccc2)nc1Nc1ccc(Cl)cc1	78.4

Now, please, on to the next compound.
So for N#Cc1c(-c2ccc(N3CCOCC3)cc2)c(C#N)c2n(Cc3ccccc3)c([S-])n[n+]2c1N , the logged inhibition in vivo at 50 mg/kg turned out to be 39.3
